Test system: SK-MEL-5 melanoma
Test: NCI-60 one-dose screen, 48 h
Conditions: 10 µM unless noted
Compounds without any hit were thinned out: in the full panel of roughly 83,000, 20% have a hit. The source made the active and inactive calls. Rule for the calls: active = growth percent below 10; inactive = the rest.
Outcomes you can answer with include only these: active, inactive

The following compounds have reported results that may help.
COMPOUND	CLASS_LABEL
COc1ccc(-c2nc3cc(C(=O)NC4CCCCC4)ccc3n2C2CCCCC2)cc1	inactive
COc1c(O[C@@H]2OC(CO)[C@H](O)[C@H](O)C2O)cc2oc3cc(O)c(CC=C(C)C)c(O)c3c(=O)c2c1CC=C(C)C (stereo partly drawn)	inactive
CCN(CC)CCCC(Nc1c2ccc(Cl)cc2nc2ccc(OC)cc12)c1ccncc1 (stereo not drawn)	inactive
CCN1C(=O)N(CC)C2C1NC(=S)N2/N=C/C=C/c1ccccc1 (stereo not drawn)	active
COc1cccc(/C=C/C(=O)/C=C(/C=C/c2cccc(OC)c2OC)OB(F)F)c1OC	inactive
Cn1cc(-c2csc(-c3cn(CCO)c4ccc(F)cc34)n2)c2cccnc21	inactive

Please state the recorded outcome for this compound: CCN(CC)CCCNC(=O)c1c2c(n3ccccc13)C(=O)c1ncccc1C2=O
active

Please state the recorded outcome for this compound: Cc1ccc2c(n1)C[C@H](C(C)(C)O)CC[C@H]2C
inactive

Please state the recorded outcome for this compound: CCc1ccc(Cc2cnc(NC(=O)c3cc(C)oc3C)s2)cc1
inactive

Please state the recorded outcome for this compound: Cn1cc(-c2nc(-c3c[nH]c4c(Cl)nccc34)cs2)c2ccccc21
inactive

----------
Test system: NCI-H460 lung
Assay: NCI-60 one-dose screen, 48 h
Details: 10 µM unless noted
Compounds without any hit were thinned out: in the full panel of roughly 83,000, 20% have a hit. Activity calls are given as the source filed them. How the source made its calls: active means growth percent below 10; inactive means the rest.
Outcomes you can answer with include only these: active, inactive

COMPOUND	SYSTEM_NAME	CLASS_LABEL
O=C(Nc1ncc(Cc2ccccc2)s1)c1cc(-c2ccccc2)nc2ccccc12	NCI-H460 lung	inactive
Cc1ccc(C2=Nc3c(N)nc(N)nc3NC(c3cccc(Nc4ccnc5cc(C(F)(F)F)ccc45)c3)C2)cc1 (centres undefined)	NCI-H460 lung	inactive
O=C(N/N=C/c1ccccc1Cl)c1ccccc1Nc1ccnc(C(F)(F)F)c1	NCI-H460 lung	active

Please state the recorded outcome for this compound: Cc1ccc2c(n1)C[C@H](C(C)(C)O)CC[C@H]2C
inactive

----------
Tested on: UACC-62 melanoma
Assay: NCI-60 one-dose screen, 48 h (100 = growth as untreated, 0 = no growth, -100 = all killed)
Conditions: 10 µM unless noted
The panel holds about 83,000 compounds, 20% with a hit somewhere; the sample as a whole holds those more often.
Catalogue of growth readings, one per entry.
Numbers only here, please. The scale is %.

The examples below pair each entry with its known result.
COMPOUND	VALUE_OBSERVED
O=C(NS(=O)(=O)c1ccccc1)n1cc(-c2ccncc2)c(-c2cc(O)cc(Cl)c2)n1	39.3
O=C1C(c2c(O)[nH]c3ncccc23)=Nc2ccccc21	79.6

For the next question, use this compound.
Query Cc1ccc(C2=Nc3c(N)nc(N)nc3NC(c3cccc(Nc4ccnc5cc(C(F)(F)F)ccc45)c3)C2)cc1 (stereo not drawn) yields growth of 40.8

----------
Catalogue of growth readings, one per entry.
Test system: SW-620 colon
Assay: NCI-60 one-dose screen, 48 h (100 = growth as untreated, 0 = no growth, -100 = all killed)
Conditions: 10 µM unless noted
This is part of a sample that, as a whole, favours compounds with a hit. Of some 83,000 tested, about 20% had one in any assay. Activity calls are given as the source filed them. The calls were made as follows: active = growth percent below 10; inactive = the rest.

Response field growth (SW-620 colon) for item O=C(Nc1ccc2c(c1)-c1ccccc1C2)C1CC(=O)N(c2ccc3c(c2)OCO3)C1 (stereo not drawn) : 75.2% [50 µM] (inactive)

----------
Test system: HCC-2998 colon
Assay: NCI-60 one-dose screen, 48 h
Details: 10 µM unless noted
Compounds without any hit were thinned out: in the full panel of roughly 83,000, 20% have a hit. Calls of active or inactive are those of the source. Rule for the calls: active = growth percent below 10; inactive = the rest.
Outcomes you can answer with include only these: active, inactive

The following compounds have reported results that may help.
QUERY_SMILES	CLASS_LABEL
N#C/C(=N\Nc1ccccc1)C(=O)Nc1cc(-c2ccccc2)nn1-c1ccccc1	inactive
CN1CCN(c2ccc(Nc3ncc4[nH]c(=O)n(Cc5ccccc5N)c4n3)cc2)CC1	inactive
CN1CCN(CCCNC(=O)c2c3c(n4ccccc24)C(=O)c2ncccc2C3=O)CC1	active

Please state the recorded outcome for this compound: CCOC(=O)/C(=C/c1ccc([N+](=O)[O-])cc1)C(=O)c1ccccc1
inactive

Please state the recorded outcome for this compound: COC(=O)c1cc(-c2cc(OC)c(OC)c(OC)c2)[nH]c1N/N=C/c1c(Cl)cccc1Cl
active

----------
Test system: BT-549 breast
Assay: NCI-60 one-dose screen, 48 h (100 = growth as untreated, 0 = no growth, -100 = all killed)
Details: 10 µM unless noted
About 83,000 compounds went through this panel and 20% of them were active in at least one assay; those are over-represented in the sample as a whole.
MEASURED_METRIC: growth (%)
Numbers only here, please. The scale is %.

The examples below pair each entry with its known result.
COMPOUND	growth / %
CCOC(=O)c1ccc2c(c1)[n+](=O)c(C(C)=O)c(C(F)(F)F)n2[O-]	-44.9
COc1cc2c(c(OC)c1OC)CCC(c1cccc(NC(=O)c3cccc(Cl)c3)c1)O2 (centres undefined)	97.2
Cc1cc2c(C(C)C)c(O)c(O)c(/C=N/O)c2c(O)c1-c1c(C)cc2c(C(C)C)c(O)c(O)c(/C=N/O)c2c1O	23.8

Query CCCCC/C=C/CCC(=O)N[C@H]1[C@H](Oc2c3cc4cc2Oc2ccc(cc2Cl)[C@@H](O[C@@H]2O[C@H](CO)[C@@H](O)[C@H](O)[C@H]2NC(C)=O)[C@@H]2NC(=O)[C@H](NC(=O)[C@@H]4NC(=O)[C@H]4NC(=O)[C@@H](Cc5ccc(c(Cl)c5)O3)NC(=O)[C@@H](N)c3ccc(O)c(c3)Oc3cc(O)cc4c3)c3ccc(O)c(c3)-c3c(O[C@H]4O[C@H](CO)[C@@H](O)[C@H](O)[C@@H]4O)cc(O)cc3[C@H](C(=O)O)NC2=O)O[C@H](CO)[C@H](O)[C@@H]1O yields growth of 107

Query CCOC(=O)C1=C(c2ccccc2)N=C2N(c3ccccc3)N=C(C(C)=O)N2C1c1ccc(Br)cc1 (centres undefined) yields growth of 98.3

Query CCN1CCN(c2cc(C(=O)Nc3cccc(Nc4ccc5c(OC)cccc5n4)c3)cc(C(F)(F)F)c2)CC1 yields growth of 69.6

Query Cc1csc(Nc2nc(-c3cccc(Cl)c3)nc(C(Cl)(Cl)Cl)n2)n1 yields growth of 96.8

Query O=C1c2c(c3c4cc(F)ccc4oc3c3[nH]c4ccccc4c23)C(=O)N1O yields growth of 44.8

Query O=C(/C=C/c1cccc([N+](=O)[O-])c1)c1ccc(Nc2nc(Nc3ccc(F)cc3)nc(Nc3ccc(Cl)cc3)n2)cc1 yields growth of 103

Query NC(=O)[C@@H]1Cc2ccccc2CN1C(=O)c1ccc2c(c1)Cc1ccccc1-2 yields growth of 63.1

Query COC(=O)[C@@H](Cc1c[nH]c2ccccc12)NC[C@@H](O)CN1C(=O)/C(=C\c2cc(OC)c(OC)c(OC)c2)c2ccccc21 yields growth of 68.4

Query [2H]C([2H])([2H])Oc1c(F)cccc1/C=C/C(=O)/C=C(O)/C=C/c1cccc(F)c1OC([2H])([2H])[2H] yields growth of 97.6

Query O=C1N/C(=N/N=C(c2ccccc2)c2ccccc2)S/C1=C\c1ccc(Br)cc1 yields growth of 97

Query COC1=C(OC)C(=O)C(CCCCCCCCCCO)=C(C)C1=O yields growth of 87.4

Query CNC1=C([N+](=O)[O-])C(c2ccc(OC)cc2)C(C#N)=C(c2ccc[nH]2)O1 (centres undefined) yields growth of 101

Query CN1CCN(Cn2nc(-c3cc(Cl)cc(Cl)c3Cl)oc2=S)CC1 yields growth of 94.9

Query C(=N\Nc1nnc2n1N=C(c1ccccc1)CS2)/c1ccc(OCc2ccccc2)cc1 yields growth of 103

----------
System: TK-10 renal
Experiment: NCI-60 one-dose screen, 48 h (100 = growth as untreated, 0 = no growth, -100 = all killed)
Details: 10 µM unless noted
The panel holds about 83,000 compounds, 20% with a hit somewhere; the sample as a whole holds those more often.
Decide by growth: equal to or exceeding 70% means True, less means False.

The following compounds have reported results that may help.
COMPOUND	SYSTEM_NAME	CLASS_LABEL
CS(=O)(=O)c1ccc(/C(=N/NC(N)=S)c2ccc(F)cc2)cc1	TK-10 renal	True
Nc1nc(=O)n([C@H]2CC=C(CO)O2)cc1F	TK-10 renal	True
c1ccc(-c2nc(N3CCNCC3)c3oc(-c4ccccc4)nc3n2)cc1	TK-10 renal	False

Could you tell me if the measured growth of CCN(CC)c1ccc(/C=N/NC(=O)c2ccccc2Nc2ccnc(C(F)(F)F)c2)c(O)c1 reaches 70% or more?
False

Could you tell me if the measured growth of COc1ccc(/C=C/C(=O)c2ccc(-n3cc(CN4CCN(c5cc6c(cc5F)c(=O)c(C(=O)O)cn6C5CC5)CC4)nn3)cc2)cc1 reaches 70% or more?
True

Could you tell me if the measured growth of O=C(/C=C/c1ccc(Cl)cc1)c1ccc(Nc2ccnc3cc(Cl)ccc23)cc1 reaches 70% or more?
True

Could you tell me if the measured growth of C=C(c1ccc(OC)c(/C=C/C(=O)c2cc(OC)c(OC)c(OC)c2)c1)c1cc(OC)c(OC)c(OC)c1 reaches 70% or more?
False
